- Target system: human M4 receptor (Homo sapiens, UniProt P08173)
- Construct: expressed in transfected cells
- Sequence (P08173 whole entry): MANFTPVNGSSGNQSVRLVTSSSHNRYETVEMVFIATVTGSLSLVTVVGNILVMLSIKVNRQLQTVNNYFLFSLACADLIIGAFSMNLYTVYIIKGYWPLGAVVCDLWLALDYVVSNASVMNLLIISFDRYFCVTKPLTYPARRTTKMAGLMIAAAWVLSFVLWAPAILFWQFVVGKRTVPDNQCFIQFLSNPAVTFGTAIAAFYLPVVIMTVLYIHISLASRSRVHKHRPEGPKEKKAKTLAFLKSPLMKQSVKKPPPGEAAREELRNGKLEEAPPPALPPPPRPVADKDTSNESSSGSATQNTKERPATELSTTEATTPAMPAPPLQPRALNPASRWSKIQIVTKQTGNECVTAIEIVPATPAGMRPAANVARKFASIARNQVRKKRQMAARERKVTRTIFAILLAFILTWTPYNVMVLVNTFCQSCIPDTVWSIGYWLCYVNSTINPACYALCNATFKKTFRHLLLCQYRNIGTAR
- Test name: SPA GTP (GTPgS) binding curve shift assay, M4
- Format: biochemical
- Condition parameters: Emraclidine concentration 0 nM
Result type: EC50

- CCCCCCCOc1nsnc1C1=CCCCN1C [KTX-593]: 12.7 nM
- CC1OC2(CS1)CN1CCC2CC1 (stereo not drawn) [cevimeline, Cevimeline, reference compound]: 1300 nM
- CCCCCOc1nsnc1C1=CCCCN1C [KTX-517]: 1.6 nM

###

- Target system: human M3 receptor (Homo sapiens, UniProt P20309)
- Construct: expressed in transfected cells
- Sequence (P20309 whole entry): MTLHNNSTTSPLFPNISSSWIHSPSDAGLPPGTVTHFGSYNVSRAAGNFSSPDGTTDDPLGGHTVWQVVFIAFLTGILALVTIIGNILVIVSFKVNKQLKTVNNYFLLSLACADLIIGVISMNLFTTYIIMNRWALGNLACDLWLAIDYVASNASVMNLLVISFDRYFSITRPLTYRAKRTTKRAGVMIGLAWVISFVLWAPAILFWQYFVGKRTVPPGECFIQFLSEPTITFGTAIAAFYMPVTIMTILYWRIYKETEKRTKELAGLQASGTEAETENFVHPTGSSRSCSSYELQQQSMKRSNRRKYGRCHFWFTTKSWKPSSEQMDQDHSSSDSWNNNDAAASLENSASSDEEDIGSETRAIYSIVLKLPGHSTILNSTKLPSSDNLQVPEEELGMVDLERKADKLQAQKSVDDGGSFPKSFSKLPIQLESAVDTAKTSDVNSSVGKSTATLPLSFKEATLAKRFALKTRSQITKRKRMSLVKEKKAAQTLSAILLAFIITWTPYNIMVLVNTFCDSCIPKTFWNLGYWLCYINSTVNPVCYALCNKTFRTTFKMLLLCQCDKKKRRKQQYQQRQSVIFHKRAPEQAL
- Test name: HTRF IP-One curve shift assay, M3
- Assay type: cell-based
- Condition parameters: Emraclidine concentration 370 nM
# key: entry, value: Emax at […]
Result type: Emax at […] (%)

• CCCCCCOc1nsnc1C1=CCCN(C)C1 [xanomeline, reference compound] = 91.6
• CC1OC2(CS1)CN1CCC2CC1 (stereo not shown) [cevimeline, Cevimeline, reference compound] = 87.8
• CCCCCCCOc1nsnc1C1=CCCCN1C [KTX-593] = 73.4
• CCCCCOc1nsnc1C1=CCCCN1C [KTX-517] = 52.1
